Numbers sourced from patent US20240336642A1.

Target: h12/15-LOX (Homo sapiens (Human))
Sequence (P16050 whole entry): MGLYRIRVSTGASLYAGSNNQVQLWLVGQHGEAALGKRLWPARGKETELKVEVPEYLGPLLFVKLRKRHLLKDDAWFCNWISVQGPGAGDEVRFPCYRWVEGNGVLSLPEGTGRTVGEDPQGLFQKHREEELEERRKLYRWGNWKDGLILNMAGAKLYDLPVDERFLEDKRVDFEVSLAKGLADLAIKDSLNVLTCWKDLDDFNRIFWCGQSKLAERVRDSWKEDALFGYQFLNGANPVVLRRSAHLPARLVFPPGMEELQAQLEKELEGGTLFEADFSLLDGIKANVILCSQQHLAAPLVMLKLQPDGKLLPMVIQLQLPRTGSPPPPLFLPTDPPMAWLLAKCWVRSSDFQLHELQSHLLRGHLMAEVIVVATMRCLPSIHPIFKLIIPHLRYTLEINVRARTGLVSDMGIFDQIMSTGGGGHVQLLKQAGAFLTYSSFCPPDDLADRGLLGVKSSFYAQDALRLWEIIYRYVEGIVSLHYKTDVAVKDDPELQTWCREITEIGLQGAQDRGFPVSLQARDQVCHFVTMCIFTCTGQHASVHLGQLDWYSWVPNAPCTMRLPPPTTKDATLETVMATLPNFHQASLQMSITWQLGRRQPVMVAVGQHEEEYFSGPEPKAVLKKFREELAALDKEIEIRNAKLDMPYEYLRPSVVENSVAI
Test: 12/15-LOX enzyme inhibition IC50 assay (Examples 1 and 2)
outcome.measure: log10 of IC50 (log10 of the value in µM)

{"columns": ["molecule", "outcome.measure", "result.value"],
 "data": [
  ["N#Cc1nc(-c2cc(Cl)cc(Cl)c2Cl)oc1NCCOCCOCCF [Compound 70]", "log10 of IC50", 0.04],
  ["Cc1cc(Cl)cc(-c2nc(C#N)c(NCCCCCO)o2)c1Cl [Compound 26]", "log10 of IC50", -0.10],
  ["CNc1oc(-c2cc(Cl)cc(Cl)c2Cl)nc1C#N [Compound 1]", "log10 of IC50", -0.92],
  ["COCCOCCCCNc1oc(-c2cc(Cl)cc(Cl)c2Cl)nc1C#N [Compound 48]", "log10 of IC50", -0.21],
  ["COCCOCCNc1oc(-c2cc(Cl)cc(C)c2Cl)nc1C#N [Compound 36]", "log10 of IC50", 0.04],
  ["COCCOCCNc1oc(-c2cc(Cl)cc(C(F)(F)F)c2Cl)nc1C#N [Compound 37]", "log10 of IC50", 0.26],
  ["CNc1oc(-c2cc(Cl)cc(C)c2Cl)nc1C#N [Compound 6]", "log10 of IC50", -0.74],
  ["N#Cc1nc(-c2cc(Cl)cc(Cl)c2Cl)oc1NCC#CCOCc1ccc(C(=O)O)cc1 [Compound 89]", "log10 of IC50", 0.11],
  ["N#Cc1nc(-c2cc(Cl)cc(Cl)c2Cl)oc1NCCCCCO [Compound 22]", "log10 of IC50", -0.29],
  ["N#Cc1nc(-c2cc(Cl)cc(C(F)(F)F)c2Cl)oc1NCCCCO [Compound 20]", "log10 of IC50", 0.18],
  ["COc1cc(OCCOCCNc2oc(-c3cc(Cl)cc(Cl)c3Cl)nc2C#N)ccn1 [Compound 101]", "log10 of IC50", -1.14],
  ["[2H]C([2H])([2H])Nc1oc(-c2cc(Cl)cc(Cl)c2Cl)nc1C#N [Compound 44]", "log10 of IC50", -1.05],
  ["COCC/C=C/CNc1oc(-c2cc(Cl)cc(Cl)c2Cl)nc1C#N [Compound 46]", "log10 of IC50", -0.68],
  ["N#Cc1nc(-c2cc(Cl)cc(Cl)c2Cl)oc1NCCOCCN1CCC(F)(F)CC1 [Compound 98]", "log10 of IC50", 0.49],
  ["Cc1cc(OCCOCCNc2oc(-c3cc(Cl)cc(Cl)c3Cl)nc2C#N)cc(C)n1 [Compound 83]", "log10 of IC50", -0.74],
  ["COCCOCCNc1oc(-c2cc(Cl)cc(Cl)c2F)nc1C#N [Compound 35]", "log10 of IC50", 0.48]
]}
